Below, each of the compounds is paired with its reported degraded at 6 h value.
Experiment: Tested for the stability in water after 6h, activity expressed as percentage hydrolysis
Type: physicochemical
Details: read-out: Hydrolysis
Write the answer as a number in %, unit excluded.

Below, each entry is followed by its recorded degraded at 6 h result.
compound | result-units | degraded at 6 h
CC(C)(C)C(=O)Oc1cc2c(cc1OC(=O)C(C)(C)C)CC(N)CC2 (centres undefined) | % | 0.01
NC1CCc2cc(OC(=O)c3ccccc3)c(OC(=O)c3ccccc3)cc2C1 (centres undefined) | % | 0.03
CC(=O)Oc1cc2c(cc1OC(C)=O)CC(N)CC2 (centres undefined) | % | 1.64

Next item in the queue.
Any idea what degraded at 6 h was measured for CC(C)C(=O)Oc1cc2c(cc1OC(=O)C(C)C)CC(N)CC2 (centres undefined) ?
0.06
